Ref: ChEMBL document CHEMBL1125273

R values, listed per item
test: Ratio of the ILS tested compound/quinocarcin was determined in CD2F1 mice on days 1-5.; also: test concentration or dose not given here; assay type: functional, Mus musculus

CSC1=C(SC)C(=O)C2=C(C[C@H]3[C@H]4[C@H](C(=O)O)C[C@@H](C5OC[C@@H]2N53)N4C)C1=O (stereo partly specified): 0.88
CSc1c(O)c2c(c(O)c1SC)[C@H](CO)N1C(C#N)[C@@H]3C[C@@H](C(=O)O)[C@H]([C@@H]1C2)N3C (stereo partly specified): 0.86
COc1cccc2c1[C@@H]1COC3[C@@H]4C[C@@H](C(=O)O)[C@H]([C@H](C2)N31)N4C (stereo partly specified): 1
COC1=C(SC(C)C)C(=O)C2=C(C[C@H]3[C@H]4[C@H](C(=O)O)C[C@@H](C(C#N)N3[C@H]2CO)N4C)C1=O (stereo partly specified): 1
CN1[C@@H]2[C@H](C(=O)O)C[C@H]1C(C#N)N1[C@@H](CO)C3=C(C[C@@H]21)C(=O)C(SC(C)(C)C)=C(SC(C)(C)C)C3=O (stereo partly specified): 0.5

Query molecule follows.
Answer with reported R of CCSc1c(O)c2c(c(O)c1OC)[C@H](CO)N1C(C#N)[C@@H]3C[C@@H](C(=O)O)[C@H]([C@@H]1C2)N3C (stereo partly specified)
0.79
